Target: cruzain (Trypanosoma cruzi);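 as to Cruzain Inhibition 10’: at 5 µM compound concentration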
Assay: biochemical
Conditions: 10’ (pre-incubation); sheet Screening results
Listed here are compounds together with their documented Cruzain Inhibition 10’.
Give just the number in %; leave the unit off.

# example entries with known answers
| COMPOUND | OBSERVED |
| --- | --- |
| CCC(Sc1nc2ccccc2o1)C(=O)Nc1nccs1 (stereo not shown) [MMV676383] | 4 |
| CCN(CC)S(=O)(=O)c1ccc(Cl)c(C(=O)Nc2ccc3nc(C)sc3c2)c1 [MMV019721] | 6.4 |
| COc1ccc(C2CC(c3cccs3)=NN2C(=O)c2ccco2)cc1OC (stereo not shown) [MMV019234] | 8 |
| N#Cc1ccc(-c2ccc(OCC(N)=O)cc2)cc1 [MMV053220] | -5 |
| COc1cccc2c(C)nc(N=C(N)N)nc12 [MMV000907] | 25 |
| O=C(NC1=NCCS1)c1sc2cc(F)ccc2c1Cl [MMV676584] | 9 |

-- ask Which Cruzain Inhibition 10’ is reported with cruzain (Trypanosoma cruzi) for this entry: COC(=O)Nc1nc2ccc(C(=O)c3ccccc3)cc2[nH]1 [MMV003152] ?
-- reply -1.4

-- ask Report Cruzain Inhibition 10’ for CS(=O)(=O)Cc1nc2ccccc2oc1=O [MMV553002] tested on cruzain (Trypanosoma cruzi).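 As to Cruzain Inhibition 10’: at 5 µM compound concentration.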
-- reply 12

-- ask State its Cruzain Inhibition 10’ on cruzain (Trypanosoma cruzi): COc1cc(N[C@@H](C)CCCN)c2ncccc2c1 [MMV000023]
-- reply 6.4

-- ask What measured Cruzain Inhibition 10’ is associated with CC[C@@H]([C@H](C)O)n1ncn(-c2ccc(N3CCN(c4ccc(OC[C@@H]5CO[C@@](Cn6cncn6)(c6ccc(F)cc6F)C5)cc4)CC3)cc2)c1=O [MMV688774] on cruzain (Trypanosoma cruzi)?
-- reply 10

-- ask // map CC1(C)OB(O)c2ccc(C3=NOC(c4cc(Cl)c(F)c(Cl)c4)(C(F)(F)F)C3)cc21 (stereo not shown) [MMV687775] to recorded Cruzain Inhibition 10’ (system: cruzain (Trypanosoma cruzi));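 as to Cruzain Inhibition 10’: at 5 µM compound concentration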
-- reply -4

====

Biological target: cruzain (Trypanosoma cruzi, UniProt P25779);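 as to Cruzain Inhibition 10’: at 5 µM compound concentration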
Sequence (P25779 123-337 limits assumed): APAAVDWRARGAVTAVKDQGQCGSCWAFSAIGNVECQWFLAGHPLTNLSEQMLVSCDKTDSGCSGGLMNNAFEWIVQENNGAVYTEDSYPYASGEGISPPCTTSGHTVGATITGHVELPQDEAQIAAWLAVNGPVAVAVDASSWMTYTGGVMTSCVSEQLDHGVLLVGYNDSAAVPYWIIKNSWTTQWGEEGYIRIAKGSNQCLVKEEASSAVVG
Test: biochemical
Details: 10’ (pre-incubation time); Pathogen Box screening results
Measured Cruzain Inhibition 10’ values are reported for all entries that follow.
Give a bare numeral; the unit % is implied.

| COMPOUND | Cruzain Inhibition 10’ (%) |
| --- | --- |
| NCCC(O)C(=O)N[C@@H]1C[C@H](N)[C@@H](OC2O[C@H](CN)[C@@H](O)[C@H](O)[C@H]2O)[C@H](O)C1OC1O[C@H](CO)[C@@H](O)[C@H](N)[C@H]1O (stereo partly shown) | -3.6 |

-- ask Return reported Cruzain Inhibition 10’; argument: CCC(C)NC(=O)c1ccc(NC(=O)C2(c3ccccc3)CCCC2)cc1 (stereo not shown)
-- reply 1.8

-- ask Entry under review: `CC(=O)N1CCN(c2ccc(Oc3ccc(Cl)cc3O)cc2)CC1` . Reported Cruzain Inhibition 10’?
-- reply -11

-- ask Can you share its Cruzain Inhibition 10’? I mean this compound: CCc1ccccc1-n1c(C)cn2c3c(=O)n(C(C(=O)OC)C(C)C)c(=O)n(C)c3nc12 (stereo not shown)
-- reply 3.2

-- ask Please look up its Cruzain Inhibition 10’: `Cc1ccc2nc(C)c(-c3ccn(Cc4ccccc4)n3)n2c1`
-- reply -4

-- ask Recorded Cruzain Inhibition 10’ of `Cc1nc(-c2ccccn2)nc(N(C)CCc2ccccc2)c1Cl` , please.
-- reply 14

====

Target: UniProtKB P25779
Assay: biochemical
Details: read-out: Inhibition at 5 µM (Mean ± SEM %) Cruzain 10′ inc, 5 µM, 10′ pre-incubation, initial screening
MEASUREMENT TYPE: inhibition at 5 µM (%)
State just the number; it will be interpreted in %.

| COMPOUND | MEASUREMENT TYPE | OBSERVED |
| --- | --- | --- |
| O=C(NCCN1CCCC1)c1cc(NCCCCN2CCC(F)(F)CC2)nc2ccc(Cl)cc12 | inhibition at 5 µM | 53 |

-- ask What value of inhibition at 5 µM has been recorded for this entry: CCn1cnc2c(Nc3cc(F)cc(F)c3)nc(C#N)nc21 [MMV676881, reference compound]
-- reply 100

-- ask Record request: inhibition at 5 µM value, item `N=C(N)Nc1ccc(-c2ccc(-c3ccc(NC(=N)N)cc3Cl)o2)c(Cl)c1`
-- reply 100

-- ask Report inhibition at 5 µM for `COc1ccc(C2=NN(C3CCCCCC3)C(=O)[C@H]3CC=CC[C@@H]23)cc1OCCCCOc1ccc(-c2nn[nH]n2)cc1` please.
-- reply 33

-- ask I am curious: what inhibition at 5 µM value has been reported for `COc1ccc(C2=NN(C3CCCCCC3)C(=O)C2(C)C)cc1OCCCCOc1ccc(-c2nn[nH]n2)cc1` ?
-- reply 27

-- ask So what does the record say about inhibition at 5 µM for `N#Cc1ccc(-c2cnc(N)c(-c3ccc(C(N)=O)cc3)n2)cc1` ?
-- reply 25

-- ask So what does the record say about inhibition at 5 µM for `COc1cc(C2=NCCN2)cc2cc(-c3ccc(C4=NCCN4)cc3)oc12` ?
-- reply 27

====

Target: cruzain (Trypanosoma cruzi, UniProt P25779);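 as to Cruzain 10’ Inhibition: at 5 µM compound concentration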
Assay: biochemical
Details: 10’ (pre-incubation time); sheet "Screening results"
Form field: Cruzain 10’ Inhibition (one value per entry).

// known answers, use as guide
| COMPOUND | MEASUREMENT TYPE | OBSERVED |
| --- | --- | --- |
| Cc1ccc(NC(=O)c2cc(S(=O)(=O)NC(C)(C)C)ccc2C)nc1 | Cruzain 10’ Inhibition | 1.9% |
| CC(C)C(Oc1cccc2ccccc12)C(=O)O (stereo not drawn) | Cruzain 10’ Inhibition | 1.5% |

-- ask Requested field: Cruzain 10’ Inhibition. Item: `CCn1ncc2c(NC3CCOCC3)c(CNC(=O)c3ccnn3C)c(C)nc21`
-- reply 1.1%

-- ask Fill in: Cruzain 10’ Inhibition of `CC(C)(C)c1cc(C(=O)N2CCN(c3nccnc3C#N)CC2)n(Cc2ccccc2)n1` is ___
-- reply 6%

-- ask Please give the measured Cruzain 10’ Inhibition for this compound: CC(Oc1ccccc1)C(=O)Nc1nc(-c2ccccn2)cs1 (stereo not drawn)
-- reply 0.8%

-- ask Data request, read-out Cruzain 10’ Inhibition, for `O=C(N[C@H](Cc1ccccc1)C(=O)Nc1ccccc1N1CCOCC1)c1cccs1`
-- reply 4.5%

-- ask What Cruzain 10’ Inhibition value was documented for this compound, `Cc1cc(NC(=O)c2ccc(Oc3ccc(Cl)cc3O)o2)no1` ?
-- reply -13%

-- ask Find the recorded Cruzain 10’ Inhibition belonging to `c1ccc(Oc2ccc(-c3cncc(-c4ccc5[nH]ccc5c4)n3)cc2)cc1` and report it.
-- reply -6%

-- ask Suppose we examine the compound CCc1ccc(C(NCc2nc(N)nc(N(C)C)n2)C(C)C)cc1 (stereo not drawn) ; what Cruzain 10’ Inhibition value has been reported?
-- reply -7%

====

Biological target: cruzain (Trypanosoma cruzi, UniProt P25779)
Assay: biochemical
Conditions: read-out: Cruzain 0’ Inhibition, 0’ (pre-incubation time); sheet "Screening results"
Class T: inhibition at 5 µM at least 40%. Class F: inhibition at 5 µM below 40%.

Check out these entries, answers already filled in.
| COMPOUND | LABEL VALUE |
| --- | --- |
| CCn1cnc2c(Nc3cc(F)cc(F)c3)nc(C#N)nc21 [MMV676881, reference compound] | T |
| CN1CCN(CCCOc2ncc(Nc3ncc(-c4ccc(C(F)(F)F)c(F)c4)nc3C(N)=O)cn2)CC1 | T |
| COc1cc(C2=NCCN2)cc2cc(-c3ccc(C4=NCCN4)cc3)oc12 | F |

Field: next compound
-- ask Kindly determine if inhibition at 5 µM recorded for `N=C(N)Nc1ccc(-c2ccc(-c3ccc(NC(=N)N)cc3Cl)o2)c(Cl)c1` is above or exactly 40%.
-- reply T

====

Measured Cruzain Inhibition 10’ values are reported for all entries that follow.
Biological target: cruzain (Trypanosoma cruzi, UniProt P25779);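 as to Cruzain Inhibition 10’: at 5 µM compound concentration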
Assay: biochemical
Details: 10’ (pre-incubation); sheet Screening results
Please answer using a numeric value trailed by its unit.

Examples with their reported Cruzain Inhibition 10’ follow.
| MOLECULE | MEASUREMENT TYPE | OBSERVED |
| --- | --- | --- |
| Cc1nn(Cc2ccccc2)c(Cl)c1C(=O)NC1CCCCCC1 [MMV063404] | Cruzain Inhibition 10’ | 7.6% |
| COC(=O)c1c(NC(=O)c2cc3ccccc3oc2=O)sc2c1CCN(Cc1ccccc1)C2 [MMV676480] | Cruzain Inhibition 10’ | 5.6% |
| c1coc(CNc2nc(N3CCCCC3)nc3ccccc23)c1 [MMV676401] | Cruzain Inhibition 10’ | 9% |

-- ask Cruzain Inhibition 10’ for CC1CCCN(C(=O)C(C)Nc2cc(Cl)ccc2N2CCOCC2)C1 (stereo not drawn) [MMV020388] ?
-- reply 4.5%

-- ask If you can, please state the reported Cruzain Inhibition 10’ value of O=C(NC1CCCCC1)N1CCN(Cc2ccc3c(c2)OCO3)CC1 [MMV676444] .
-- reply 5.5%

-- ask # lookup: Cruzain Inhibition 10’ of Cc1cccnc1NC(=O)c1cccc(OCc2c(C)noc2C)c1 [MMV688793]
-- reply 10%

-- ask Which Cruzain Inhibition 10’ is reported for this molecule? Cc1nc2ccccn2c1C(=O)NCc1ccc(Cl)cc1 [MMV012074]
-- reply 12%

-- ask Field request: Cruzain Inhibition 10’ | item: COc1ccc(CN2CCOc3ccc(C(C)(O)CN(C)C)cc3C2)cc1C (stereo not drawn) [MMV008439]
-- reply 0%

-- ask Fill blank: measured Cruzain Inhibition 10’ of the molecule O=S(=O)(c1ccc(Cl)cc1)N1CCN(C(=S)NCc2ccco2)CC1 [MMV000858] is ____.
-- reply 13%
